# TARGET: T1, rat serum albumin (rat SA), full length (rat, UniProt P02770 25-608)
# T1 construct: mature; Immobilized on CM5 chip (SPR); also called RSA
# T1 sequence (P02770 25-608): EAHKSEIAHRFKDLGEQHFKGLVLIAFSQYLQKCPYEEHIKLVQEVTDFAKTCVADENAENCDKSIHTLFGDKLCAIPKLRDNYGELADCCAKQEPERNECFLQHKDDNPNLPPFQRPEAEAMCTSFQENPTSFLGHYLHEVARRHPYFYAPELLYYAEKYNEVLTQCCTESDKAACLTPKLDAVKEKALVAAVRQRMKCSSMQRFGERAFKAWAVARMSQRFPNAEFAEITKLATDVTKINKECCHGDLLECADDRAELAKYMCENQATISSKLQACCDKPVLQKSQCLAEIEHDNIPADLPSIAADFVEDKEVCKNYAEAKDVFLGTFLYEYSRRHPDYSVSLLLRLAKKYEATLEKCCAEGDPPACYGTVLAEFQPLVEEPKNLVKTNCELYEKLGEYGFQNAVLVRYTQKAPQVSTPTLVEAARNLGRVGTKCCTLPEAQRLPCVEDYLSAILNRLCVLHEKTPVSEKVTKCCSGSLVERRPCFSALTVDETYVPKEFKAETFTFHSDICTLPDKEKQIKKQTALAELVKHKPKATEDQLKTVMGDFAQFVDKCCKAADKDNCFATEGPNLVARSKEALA
# EXPERIMENT: SPR kinetics, immobilized albumin, 1:1 fit, 37 C
Listed here: items and their measured koff.
State just the number; it will be interpreted in s⁻¹.

Answered cases to consult:
ADX_7016_A01 (parent PKE2 Adnectin) (designed binder, N-terminal Met may be cleaved; also called 2629_E06; ADX_2629_E06) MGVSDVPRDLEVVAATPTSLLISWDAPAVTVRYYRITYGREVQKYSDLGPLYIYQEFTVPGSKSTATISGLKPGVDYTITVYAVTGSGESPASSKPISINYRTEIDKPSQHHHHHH ... 0.00143
ADX_7016_E02 (L38T) (designed binder, Full His6-tagged entry; also called 6727_E08) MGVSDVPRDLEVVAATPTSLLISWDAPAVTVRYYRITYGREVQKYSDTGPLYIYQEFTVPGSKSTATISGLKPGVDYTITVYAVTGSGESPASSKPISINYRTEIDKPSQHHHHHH ... 0.0558
ADX_7016_C03 (Y44Q) (designed binder, Full His6-tagged entry; also called 6727_B03) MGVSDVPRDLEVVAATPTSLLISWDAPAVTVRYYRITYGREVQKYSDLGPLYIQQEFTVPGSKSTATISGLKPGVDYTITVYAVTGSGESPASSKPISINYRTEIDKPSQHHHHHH ... 0.119

Note: attention shifts to another entry.
Q: Can you look up the measured koff of ADX_7016_G01 (Y44S) (designed binder, Full His6-tagged entry; also called 6727_G02) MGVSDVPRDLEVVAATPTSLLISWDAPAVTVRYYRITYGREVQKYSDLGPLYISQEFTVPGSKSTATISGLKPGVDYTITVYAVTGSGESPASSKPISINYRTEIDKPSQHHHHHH for me?
Result: 0.0346
